test system: Plasmodium falciparum; test: Antiplasmodial activity against […] Plasmodium falciparum NF54 early gametocytes transfected with GFP-Luc […] at 5 uM incubated for 48 hrs by microscopy based luciferase reporter gene assay relative to control; format: functional
measured attribute: inhibition at 5 µM (%)
// return numeric value only (unit: %, not printed)

Illustrative cases are given below, each with its answer.
smiles=CCN(CC)Cc1cc(F)cc(Nc2nc3ccccc3n2Cc2ccc(C(F)(F)F)cc2)c1O tested_target="Plasmodium falciparum" unit_info=% reported=90
smiles=CCN(CC)Cc1cc(Cl)cc(Nc2nc3ccccc3n2Cc2ccc(C(F)(F)F)cc2)c1O tested_target="Plasmodium falciparum" unit_info=% reported=89
smiles=CCN(CC)Cc1cccc(Nc2nc3ccccc3n2Cc2ccc(F)cc2)c1O tested_target="Plasmodium falciparum" unit_info=% reported=91

// query API: value(readout= inhibition at 5 µM, system= Plasmodium falciparum, query= CCN(CC)Cc1ccc(Nc2nc3ccccc3n2Cc2ccc(C(F)(F)F)cc2)cc1O )
// result 41

// query Request - read-out inhibition at 5 µM | tested on Plasmodium falciparum | compound CCNCc1cc(Cl)cc(Nc2nc3ccccc3n2Cc2ccc(C(F)(F)F)cc2)c1O
// result 91

// query // map CCN(CC)Cc1ccc(C)c(Nc2nc3ccccc3n2Cc2ccc(C(F)(F)F)cc2)c1O to recorded inhibition at 5 µM (system: Plasmodium falciparum)
// result 90

// query Tell me reported inhibition at 5 µM for CC(C)(C)NCc1cc(Cl)cc(Nc2nc3ccccc3n2Cc2ccc(C(F)(F)F)cc2)c1O , tested with Plasmodium falciparum.
// result 92

// query # query: inhibition at 5 µM | item CCNCc1cc(Cl)cc(Nc2nc3cc(F)c(F)cc3n2Cc2ccc(C(F)(F)F)cc2)c1O | system: Plasmodium falciparum
// result 91

---

test: Selectivity index, ratio of IC50 for Cytotoxicity against CHO cells assessed as inhibition of cell viability by MTT assay to IC50 for antimalarial activity against asexual blood stage Plasmodium falciparum NF54 assessed as reduction in parasitemia incubated up to 72 hrs by [3H]hypoxanthine incorporation assay; assay type: toxicity, cell-based; details: hamster, read-out: Selectivity Index
Recorded measurements of selectivity ratio at 72 h, one per entry

Examples with their reported selectivity ratio at 72 h follow.
smiles=CCN(CC)Cc1ccc(C)c(Nc2nc3ccccc3n2Cc2ccc(F)cc2)c1O reported="> 22"
smiles=CCN(CC)Cc1ccc(C)c(Nc2nc3ccccc3[nH]2)c1O reported="> 58"

Next compound, please.
// query Value lookup for selectivity ratio at 72 h; key = CCN(CC)Cc1ccc(Nc2nc3ccccc3[nH]2)cc1O
// result > 26
